These measurements were taken from patent US11279712B2.

system.tested: Mcl-1/Bim interaction (recombinant human Mcl-1 residues 171-327) (Homo sapiens (Human))
Sequence (Q07820 171-327): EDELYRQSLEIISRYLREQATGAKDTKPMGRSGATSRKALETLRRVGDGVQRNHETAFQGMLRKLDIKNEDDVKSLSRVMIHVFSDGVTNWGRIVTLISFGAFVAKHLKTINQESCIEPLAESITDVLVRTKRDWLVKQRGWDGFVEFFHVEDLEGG
procedure.summary: Cell Free Mcl-1:Bim Affinity Assay (Mcl-1 HTRF)
run.conditions: TR-FRET, 0.1 nM Mcl-1(171-327), 0.05 nM biotin-Bim(51-76)
test.readout: IC50 (nM)
Numeric answer only, unit nM assumed.

The following molecules have reported results that may help.
molecule	unit.text	IC50
C[C@@H]1[C@@H](C)CCC[C@H](CN2CCN3CCN(C)C[C@@H]3C2)[C@@H]2CC[C@H]2CN2C[C@@]3(CCCc4cc(Cl)ccc43)COc3ccc(cc32)C(=O)NS1(=O)=O (single isomer, unassigned) [Example 56]	nM	0.52
COCCNC(=O)[C@@H]1CCC[C@H](C)[C@@H](C)S(=O)(=O)NC(=O)c2ccc3c(c2)N(C[C@@H]2CC[C@H]21)C[C@@]1(CCCc2cc(Cl)ccc21)CO3 (single isomer, unassigned) [Example 57]	nM	0.604
C[C@@H]1[C@@H](C)CCC[C@H](CN2CCOCC2)[C@@H]2CC[C@H]2CN2C[C@@]3(CCCc4cc(Cl)ccc43)COc3ccc(cc32)C(=O)NS1(=O)=O (stereo in doubt) [Example 55]	nM	0.843
C[C@@H]1[C@@H](C)CCC[C@H](CN2CCN(C)CC2)[C@@H]2CC[C@H]2CN2C[C@@]3(CCCc4cc(Cl)ccc43)COc3ccc(cc32)C(=O)NS1(=O)=O (single isomer, unassigned) [Example 5]	nM	0.622

Specify IC50 for COCCNC(=O)[C@H]1CCC[C@H](C)[C@@H](C)S(=O)(=O)NC(=O)c2ccc3c(c2)N(C[C@@H]2CC[C@H]21)C[C@@]1(CCCc2cc(Cl)ccc21)CO3 (single isomer, unassigned) [Example 11] and stop.
0.237

Find the measured IC50 of C[C@@H]1[C@@H](C)CCC[C@H](CN2CCN(C)CC2)[C@@H]2CC[C@H]2CN2C[C@@]3(CCCc4cc(Cl)ccc43)COc3ccc(cc32)C(=O)NS1(=O)=O (single isomer, unassigned) [Example 34] and report it.
0.602

Consider the molecule CC(=O)[C@@H]1CCC[C@H](C)[C@@H](C)S(=O)(=O)NC(=O)c2ccc3c(c2)N(C[C@@H]2CC[C@H]21)C[C@@]1(CCCc2cc(Cl)ccc21)CO3 (single isomer, unassigned) [Example 45] . State its measured IC50.
0.338

Indicate the recorded IC50 value for this molecule: COCCN1CCN(C[C@H]2CCC[C@H](C)[C@@H](C)S(=O)(=O)NC(=O)c3ccc4c(c3)N(C[C@@H]3CC[C@@H]23)C[C@@]2(CCCc3cc(Cl)ccc32)CO4)CC1=O (stereo in doubt) [Example 3]
0.257

Answer with the recorded IC50 for the molecule listed here: CC[C@@H]1CCCC[C@H](CO)[C@@H]2CC[C@H]2CN2C[C@@]3(CCCc4cc(Cl)ccc43)COc3ccc(cc32)C(=O)NS1(=O)=O (single isomer, unassigned) [Example 71]
0.359

Please report the measured IC50 for C[C@@H]1[C@@H](C)CCC[C@H](CN2CC(N(C)C)C2)[C@@H]2CC[C@H]2CN2C[C@@]3(CCCc4cc(Cl)ccc43)COc3ccc(cc32)C(=O)NS1(=O)=O (stereo in doubt) [Example 18]
0.84

Please list IC50 recorded for the molecule C[C@@H]1[C@@H](C)CCC[C@@H]([C@H](O)C(F)(F)F)[C@@H]2CC[C@H]2CN2C[C@@]3(CCCc4cc(Cl)ccc43)COc3ccc(cc32)C(=O)NS1(=O)=O (single isomer, unassigned) [Example 66]
7.29

Item CC(=O)N1CCN(C[C@H]2CCC[C@H](C)[C@@H](C)S(=O)(=O)NC(=O)c3ccc4c(c3)N(C[C@@H]3CC[C@@H]23)C[C@@]2(CCCc3cc(Cl)ccc32)CO4)CC1 (stereo in doubt) [Example 33] : provide IC50
0.172

Identify measured IC50 corresponding to C[C@@H]1[C@@H](C)CCC[C@H](CN2CC(C)(N(C)C)C2)[C@@H]2CC[C@H]2CN2C[C@@]3(CCCc4cc(Cl)ccc43)COc3ccc(cc32)C(=O)NS1(=O)=O (single isomer, unassigned) [Example 17]
0.881

Return IC50 (reported value) for this molecule: COCCN1CCCN(C[C@H]2CCC[C@H](C)[C@@H](C)S(=O)(=O)NC(=O)c3ccc4c(c3)N(C[C@@H]3CC[C@@H]23)C[C@@]2(CCCc3cc(Cl)ccc32)CO4)CC1=O (stereo in doubt) [Example 42]
0.408

Output measured IC50 for this item: C[C@@H]1[C@@H](C)CCC[C@H](CN2CC3(CCCN3C)C2)[C@@H]2CC[C@H]2CN2C[C@@]3(CCCc4cc(Cl)ccc43)COc3ccc(cc32)C(=O)NS1(=O)=O (single isomer, unassigned) [Example 16]
0.317

Please list IC50 recorded for the molecule C[C@@H]1[C@@H](C)CCC[C@H](CN2CCOCC2)[C@@H]2CC[C@H]2CN2C[C@@]3(CCCc4cc(Cl)ccc43)COc3ccc(cc32)C(=O)NS1(=O)=O (single isomer, unassigned) [Example 46]
0.743

Supply measured IC50 of C[C@H]1CCC[C@H](CO)[C@@H]2CC[C@H]2CN2C[C@@]3(CCCc4cc(Cl)ccc43)COc3ccc(cc32)C(=O)NS(=O)(=O)C1 (single isomer, unassigned) [Example 82] in your reply.
0.772

Report IC50 for C[C@@H]1[C@@H](C)CCC[C@@H]([C@@H](O)C(F)(F)F)[C@@H]2CC[C@H]2CN2C[C@@]3(CCCc4cc(Cl)ccc43)COc3ccc(cc32)C(=O)NS1(=O)=O (single isomer, unassigned) [Example 47]
1.61

Return reported IC50. Input molecule: C[C@H]1CCC[C@H](CO)[C@@H]2CC[C@H]2CN2C[C@@]3(CCCc4cc(Cl)ccc43)COc3ccc(cc32)C(=O)NS(=O)(=O)C1 (single isomer, unassigned) [Example 51]
0.222

Indicate its recorded IC50; the molecule in question is C[C@@H]1[C@@H](C)CCC[C@H](CN2CCN3CCN(C)C[C@@H]3C2)[C@@H]2CC[C@H]2CN2C[C@@]3(CCCc4cc(Cl)ccc43)COc3ccc(cc32)C(=O)NS1(=O)=O (single isomer, unassigned) [Example 6]
0.353
